These data points were gathered from ChEMBL document CHEMBL1144172.

- system.under.test: Beta-3 adrenergic receptor (Homo sapiens, UniProt P13945)
- Sequence (P13945 whole entry): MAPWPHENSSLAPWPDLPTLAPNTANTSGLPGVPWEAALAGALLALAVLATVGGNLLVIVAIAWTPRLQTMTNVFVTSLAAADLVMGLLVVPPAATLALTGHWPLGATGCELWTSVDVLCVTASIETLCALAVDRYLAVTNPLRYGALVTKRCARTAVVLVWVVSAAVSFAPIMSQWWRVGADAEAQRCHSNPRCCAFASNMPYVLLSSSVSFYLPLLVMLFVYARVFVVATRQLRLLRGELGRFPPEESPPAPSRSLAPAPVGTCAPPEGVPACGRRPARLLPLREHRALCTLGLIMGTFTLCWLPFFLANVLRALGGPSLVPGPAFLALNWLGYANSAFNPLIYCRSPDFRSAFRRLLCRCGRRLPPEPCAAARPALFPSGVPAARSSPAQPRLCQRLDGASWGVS
- experimental.protocol: Agonist activity at human cloned adrenergic beta3 receptor expressed in CHO cells assessed as cAMP accumulation
pEC50: −log10 of the molar value.
measurement.kind: pEC50

Observe how each entry below is paired with its result.
* CC(=O)Nc1cc(Oc2cccc(CCNC[C@H](O)c3cccc(Cl)c3)c2)cc(C(=O)O)c1 | 8.19
* CC(=O)Nc1ccc(Oc2cccc(CCNC[C@H](O)c3cccnc3)c2)cc1C(=O)O | 7.92
* COc1ccc(Oc2cccc(CCNC[C@H](O)c3cccc(Cl)c3)c2)cc1C(=O)O | 7.96
* Cc1ccc(Oc2cccc(CCNC[C@H](O)c3cccc(Cl)c3)c2)cc1C(=O)O | 7.89
* O=C(O)c1cc(NC(=O)c2ccccc2)cc(Oc2cccc(CCNC[C@H](O)c3cccc(Cl)c3)c2)c1 | 7.68

I. CC(=O)Nc1ccc(Oc2cccc(CCNC[C@H](O)c3cccc(Cl)c3)c2)cc1C(=O)O
II. O=C(O)c1cccc(Oc2cccc(CCNC[C@H](O)c3cccc(Cl)c3)c2)c1
Query block: Looking only at measured pEC50, which entry is lower, I or II ? Mark your answer with the label of the selected entry.
Result block: II
(II: 7.85, I: 8.14)

a. O=C(O)c1cc(Oc2cccc(CCNC[C@H](O)c3cccc(Cl)c3)c2)ccc1N1CCCC1=O
b. CC(C)Oc1ccc(Oc2cccc(CCNC[C@H](O)c3cccc(Cl)c3)c2)cc1C(=O)O
c. O=C(O)c1cc(Oc2cccc(CCNC[C@H](O)c3cccnc3)c2)ccc1F
d. COc1ccc(Oc2cccc(CCNC[C@H](O)c3cccnc3)c2)cc1C(=O)O
Query block: Ranking field: pEC50; order: falling. Dear reader, please state the labels in the requested order.
Result block: b, a, c, d

I. O=C(O)c1cc(Oc2cccc(CCNC[C@H](O)c3cccc(Cl)c3)c2)ccc1Cl
II. O=C(O)c1ccc(Oc2cccc(CCNC[C@H](O)c3cccc(Cl)c3)c2)cc1
III. CC(C)(C)C(=O)Nc1ccc(Oc2cccc(CCNC[C@H](O)c3cccc(Cl)c3)c2)cc1C(=O)O
Query block: Sequence the entries by pEC50, beginning with the highest number. Form entry: ranked labels (order as requested).
Result block: III, I, II

====

Read-out record for Beta-1 adrenergic receptor (Homo sapiens): EC50
measurement.kind: EC50 (nM)

Here are 3 compounds together with their reported answers.
- O=C(O)c1cc(NC(=O)c2ccccc2)cc(Oc2cccc(CCNC[C@H](O)c3cccc(Cl)c3)c2)c1: 190
- CC(=O)Nc1ccc(Oc2cccc(CCNC[C@H](O)c3cccnc3)c2)cc1C(=O)O: 190
- O=C(Nc1ccc(Oc2cccc(CCNC[C@H](O)c3cccc(Cl)c3)c2)cc1C(=O)O)c1ccccc1: 130

a. CC(=O)Nc1ccc(Oc2cccc(CCNC[C@H](O)c3cccc(Cl)c3)c2)cc1C(=O)O
b. O=C(O)c1cc(Oc2cccc(CCNC[C@H](O)c3cccc(Cl)c3)c2)ccc1F
Query block: Which has the higher EC50, a or b ? Pick one; state its label.
Result block: a
(a: 380 nM, b: 140 nM)

1. O=C(O)c1cc(Oc2cccc(CCNC[C@H](O)c3cccc(Cl)c3)c2)ccc1Cl
2. COc1ccc(Oc2cccc(CCNC[C@H](O)c3cccnc3)c2)cc1C(=O)O
Query block: Would you kindly point out which of 1 and 2 has the smaller EC50 figure? I would appreciate it if you answered with the label of your choice.
Result block: 1
(1: 64 nM, 2: 690 nM)

1. CC(=O)Nc1cc(Oc2cccc(CCNC[C@H](O)c3cccc(Cl)c3)c2)cc(C(=O)O)c1
2. COc1ccc(Oc2cccc(CCNC[C@H](O)c3cccc(Cl)c3)c2)cc1C(=O)O
3. O=C(O)c1cc(Oc2cccc(CCNC[C@H](O)c3cccnc3)c2)ccc1F
Query block: Falling order of EC50, please. Response format: the labels, sorted as the prompt asks.
Result block: 3, 2, 1

====

- System: CHO
- experimental.protocol: Selectivity for human cloned adrenergic beta-1 receptor over human cloned adrenergic beta3 receptor expressed in CHO cells
- Assay type: cell-based
# Ratio EC50 per entry
Give your answer as a number; write no unit.

* COc1ccc(Oc2cccc(CCNC[C@H](O)c3cccnc3)c2)cc1C(=O)O | 12
* Cc1ccc(Oc2cccc(CCNC[C@H](O)c3cccc(Cl)c3)c2)cc1C(=O)O | 42
* CC(C)(C)C(=O)Nc1ccc(Oc2cccc(CCNC[C@H](O)c3cccc(Cl)c3)c2)cc1C(=O)O | 135

Per the records, this compound ( CC(C)Oc1ccc(Oc2cccc(CCNC[C@H](O)c3cccc(Cl)c3)c2)cc1C(=O)O ) has Ratio EC50 equal to 238

Reported Ratio EC50 ( O=C(O)c1cc(Oc2cccc(CCNC[C@H](O)c3cccnc3)c2)ccc1F ) = 27

response.value for COc1ccc(Oc2cccc(CCNC[C@H](O)c3cccc(Cl)c3)c2)cc1C(=O)O (field: Ratio EC50) = 46

For this compound ( C[C@H](Cc1cccc(Oc2cccc(C(=O)O)c2)c1)NC[C@H](O)c1cccc(Cl)c1 ), measured Ratio EC50 is 15

====

- system.under.test: UniProtKB O02662
- Sequence (O02662 whole entry): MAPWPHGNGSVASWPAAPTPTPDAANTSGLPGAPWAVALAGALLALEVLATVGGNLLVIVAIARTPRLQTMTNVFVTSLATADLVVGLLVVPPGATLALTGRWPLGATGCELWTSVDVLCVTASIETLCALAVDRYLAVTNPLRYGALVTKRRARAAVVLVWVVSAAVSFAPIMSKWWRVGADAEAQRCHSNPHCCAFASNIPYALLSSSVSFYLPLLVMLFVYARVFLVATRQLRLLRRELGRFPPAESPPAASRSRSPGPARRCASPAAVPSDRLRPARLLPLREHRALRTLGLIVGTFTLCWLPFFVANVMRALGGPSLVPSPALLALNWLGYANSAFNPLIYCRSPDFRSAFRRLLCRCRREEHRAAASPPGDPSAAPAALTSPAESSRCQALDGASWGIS
- experimental.protocol: Agonist activity at dog cloned adrenergic beta3 receptor expressed in CHO cells assessed as cAMP accumulation
- Type: functional, cell-based
pEC50: −log10 of the molar value.
measurement.kind: pEC50

* CC(C)(C)C(=O)Nc1ccc(Oc2cccc(CCNC[C@H](O)c3cccc(Cl)c3)c2)cc1C(=O)O | 8.80

A. O=C(O)c1cc(Oc2cccc(CCNC[C@H](O)c3cccc(Cl)c3)c2)ccc1N1CCCC1=O
B. CC(C)Oc1ccc(Oc2cccc(CCNC[C@H](O)c3cccc(Cl)c3)c2)cc1C(=O)O
Query block: Return label of the item with the larger pEC50. Candidates: A , B . Please identify the chosen entry by its label.
Result block: A

====

- system.under.test: Beta-3 adrenergic receptor (Homo sapiens, UniProt P13945)
- experimental.protocol: Agonist activity at human cloned adrenergic beta3 receptor expressed in CHO cells assessed as cAMP accumulation
measurement.kind: pEC50
// field semantics: pEC50 = negative decimal log of concentration (mol/L)

Reference set, count: 2
• O=C(O)c1cc(Oc2cccc(CCNC[C@H](O)c3cccc(Cl)c3)c2)ccc1F = 8.03
• C[C@H](Cc1cccc(Oc2cccc(C(=O)O)c2)c1)NC[C@H](O)c1cccc(Cl)c1 = 8.72

Now look at this one.
Quick note, pEC50 for O=C(Nc1ccc(Oc2cccc(CCNC[C@H](O)c3cccc(Cl)c3)c2)cc1C(=O)O)c1ccccc1 landed at 8.07

====

Below are molecules with their EC50 as measured on Beta-1 adrenergic receptor (Homo sapiens, UniProt P08588).
Sequence (P08588 whole entry): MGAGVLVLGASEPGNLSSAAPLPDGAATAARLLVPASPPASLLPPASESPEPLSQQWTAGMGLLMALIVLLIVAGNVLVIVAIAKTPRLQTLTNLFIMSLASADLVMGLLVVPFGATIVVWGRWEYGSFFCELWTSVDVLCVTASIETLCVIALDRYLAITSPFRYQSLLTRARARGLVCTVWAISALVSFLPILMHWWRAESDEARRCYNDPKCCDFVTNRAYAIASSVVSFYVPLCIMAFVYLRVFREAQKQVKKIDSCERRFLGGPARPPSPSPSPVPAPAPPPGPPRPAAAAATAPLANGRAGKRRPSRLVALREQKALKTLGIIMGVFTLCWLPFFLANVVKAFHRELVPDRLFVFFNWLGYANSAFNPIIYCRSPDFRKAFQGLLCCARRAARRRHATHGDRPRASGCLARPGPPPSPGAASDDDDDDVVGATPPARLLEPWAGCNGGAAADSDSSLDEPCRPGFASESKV
measurement.kind: EC50 (nM)

- CC(C)Oc1ccc(Oc2cccc(CCNC[C@H](O)c3cccc(Cl)c3)c2)cc1C(=O)O: 810
- Cc1ccc(Oc2cccc(CCNC[C@H](O)c3cccc(Cl)c3)c2)cc1C(=O)O: 550
- CC(C)(C)C(=O)Nc1ccc(Oc2cccc(CCNC[C@H](O)c3cccc(Cl)c3)c2)cc1C(=O)O: 620
- C[C@H](Cc1cccc(Oc2cccc(C(=O)O)c2)c1)NC[C@H](O)c1cccc(Cl)c1: 28

====

Entries below carry reported EC50 on UniProtKB P08588.

Before answering, review these 2 worked examples.
- O=C(O)c1cccc(Oc2cccc(CCNC[C@H](O)c3cccc(Cl)c3)c2)c1: > 100 nM
- O=C(O)c1ccc(Oc2cccc(CCNC[C@H](O)c3cccc(Cl)c3)c2)cc1: > 100 nM

Next:
Entry O=C(O)c1cc(Oc2cccc(CCNC[C@H](O)c3cccc(Cl)c3)c2)ccc1N1CCCC1=O , tested on UniProtKB P08588, has a reported EC50 of > 1000 nM
